Test system: Nucleic Acid
measurement-description: Concentration to give comigration of ccc PM-2 DNA with nicked PM-2 DNA under electrophoresis was evaluated.
Format: nucleic-acid assay
test-settings: unidentified phage
recorded-metric: Critical concentration (µg/mL)

INSERT INTO measurements (compound_string, recorded_metric, reported) VALUES
  ('CCN(CC)CCNc1cccc2c1C(=O)c1cccc(NCCN(CC)CC)c1C2=O', 'Critical concentration', 0.16),
  ('CCN(CC)CCNc1cccc2c1C(=O)c1c(NCCN(CC)CC)cccc1C2=O', 'Critical concentration', 0.4),
  ('CCN(CC)CCNc1ccc(NCCN(CC)CC)c2c1C(=O)c1ccccc1C2=O', 'Critical concentration', 0.16),
  ('CCN(CC)CCNc1cccc2c1C(=O)c1ccccc1C2=O', 'Critical concentration', 0.8);

* * *

Tested on: Mus musculus
measurement-description: In vivo antileukemic activity against P-388 cells in mice and the treated /control value was determined at schedule Q01Dx01 at a dose of 2 mg/kg
Format: functional
recorded-metric: T/C

INSERT INTO assay_data (compound_string, reported) VALUES
  ('CCN(CC)CCNc1cccc2c1C(=O)c1cccc(NCCN(CC)CC)c1C2=O', 98),
  ('CCN(CC)CCNc1cccc2c1C(=O)c1c(NCCN(CC)CC)cccc1C2=O', 104),
  ('CCN(CC)CCNc1ccc(NCCN(CC)CC)c2c1C(=O)c1ccccc1C2=O', 95),
  ('CCN(CC)CCNc1cccc2c1C(=O)c1ccccc1C2=O', 98);

* * *

System: Nucleic Acid
measurement-description: Compound was evaluated for DNA binding affinity
Type: nucleic-acid assay
test-settings: Bos taurus
molecules and their reported Affinity constant
recorded-metric: Affinity constant (M⁻¹)

INSERT INTO results (compound_string, target, reported) VALUES
  ('CCN(CC)CCNc1cccc2c1C(=O)c1cccc(NCCN(CC)CC)c1C2=O', 'Nucleic Acid', '3.97e+06'),
  ('CCN(CC)CCNc1cccc2c1C(=O)c1ccccc1C2=O', 'Nucleic Acid', '1.48e+06'),
  ('CCN(CC)CCNc1cccc2c1C(=O)c1c(NCCN(CC)CC)cccc1C2=O', 'Nucleic Acid', '1.71e+06'),
  ('CCN(CC)CCNc1ccc(NCCN(CC)CC)c2c1C(=O)c1ccccc1C2=O', 'Nucleic Acid', '3.17e+06');

Taken from ChEMBL document CHEMBL1122896.
